pIC50 listing for selected compounds.
- Tested on: NCI-H460
- Protocol Description: Cytotoxicity against human NCI-H460 cells by MTT assay
- Assay type: functional, cell-based
Quick note: pIC50 means taking -log10 of the concentration in moles per liter.

Some entries whose results are on file:
Compound	Readout Value
CCOC(=O)Nc1ccc(S(=O)(=O)N2C[C@H](c3ccccc3)NC2=O)cc1F	5.35
CCc1cc(S(=O)(=O)N2C[C@H](c3ccccc3)NC2=O)ccc1NC(=O)OCC(C)C	7.10
CCOC(=O)Nc1ccc(S(=O)(=O)N2C[C@H](c3ccccc3)NC2=O)cc1C	7.15

Tell me measured pIC50 for CCc1cc(S(=O)(=O)N2C[C@H](c3ccccc3)NC2=O)ccc1NC(=O)c1ccc([N+](=O)[O-])cc1 please.
6.10

Tell me measured pIC50 for CCOC(=O)Nc1ccc(S(=O)(=O)N2C(=O)N[C@@H](c3ccccc3)C2C)cc1C (stereo partly drawn) please.
5.30

Tell me measured pIC50 for CCc1cc(S(=O)(=O)N2C[C@H](c3ccccc3)NC2=O)ccc1NC(=O)NC1CCCCC1 please.
6.52

----------
- Tested on: NCI-H460
- Protocol Description: Cytotoxicity against human NCI-H460 cells by MTT assay
- Type: functional, cell-based
Readout Type: pIC50
Quick note: pIC50 means taking -log10 of the concentration in moles per liter.

Smiles Entry	pIC50
CCOC(=O)Nc1ccc(S(=O)(=O)N2C[C@H](c3ccccc3)NC2=O)c(C)c1C	6.52
CCc1cc(S(=O)(=O)N2C[C@H](c3ccccc3)NC2=O)ccc1NC(=O)OC	6.52
CCCOC(=O)Nc1ccc(S(=O)(=O)N2C[C@H](c3ccccc3)NC2=O)cc1CC	7.22
CCCCOC(=O)Nc1ccc(S(=O)(=O)N2C[C@H](c3ccccc3)NC2=O)cc1CC	6.70

Tell me measured pIC50 for CCc1cc(S(=O)(=O)N2C[C@H](c3ccccc3)NC2=O)ccc1NC(=O)OC(C)C please.
7.22

----------
- Tested on: A549
- Protocol Description: Cytotoxicity against human A549 cells by MTT assay
- Assay type: functional, cell-based
Flag rule - IC50 less than 200 nM flags Y; the remaining entries get N.

Worked examples, 2 compounds total:
Compound	Label
CCc1cc(S(=O)(=O)N2C[C@H](c3ccccc3)NC2=O)ccc1NC(=O)OC(C)C	Y
CCc1cc(S(=O)(=O)N2C[C@H](c3ccccc3)NC2=O)ccc1NC(=O)OCC(C)C	Y

Answer whether the compound CCc1cc(S(=O)(=O)N2C[C@H](c3ccccc3)NC2=O)ccc1NC(=O)NC(C)C has IC50 strictly less than 200 nM
Y

Answer whether the compound CC1[C@H](c2ccccc2)NC(=O)N1S(=O)(=O)c1ccc(NC(=O)c2ccc(N)cc2)c(Cl)c1 (stereo partly specified) has IC50 strictly less than 200 nM
N

Answer whether the compound CC1[C@H](c2ccccc2)NC(=O)N1S(=O)(=O)c1ccc(NC(=O)c2ccc([N+](=O)[O-])cc2)c(Cl)c1 (stereo partly specified) has IC50 strictly less than 200 nM
N

Answer whether the compound CCc1cc(S(=O)(=O)N2C[C@H](c3ccccc3)NC2=O)ccc1NC(=O)c1ccc([N+](=O)[O-])cc1 has IC50 strictly less than 200 nM
N

----------
IC50 listing for selected compounds.
- System: NCI-H460
- Protocol Description: Cytotoxicity against human NCI-H460 cells by MTT assay
- Assay type: functional, cell-based
Expressed in nM, but write only the number.

Compound	U	Readout Value
CCOC(=O)Nc1ccc(S(=O)(=O)N2C(=O)N[C@@H](c3ccccc3)C2C)cc1Cl (some centres not stated)	nM	6000
CCOC(=O)Nc1ccc(S(=O)(=O)N2C[C@H](c3ccccc3)NC2=O)cc1CC	nM	70
COc1cccc2c1C(=O)c1c(O)c3c(c(O)c1C2=O)C[C@@](O)(C(=O)CO)C[C@@H]3O[C@H]1C[C@H](N)[C@H](O)[C@H](C)O1 [DOXORUBICIN]	nM	456

Tell me measured IC50 for CCOC(=O)Nc1ccc(S(=O)(=O)N2C[C@H](c3ccccc3)NC2=O)cc1Cl please.
20

Tell me measured IC50 for CCc1cc(S(=O)(=O)N2C[C@H](c3ccccc3)NC2=O)ccc1NC(=O)NC(C)C please.
70

Tell me measured IC50 for CCc1cc(S(=O)(=O)N2C[C@H](c3ccccc3)NC2=O)ccc1NC(=O)c1ccc(N)cc1 please.
670
